So I've got a bunch of binders here, and I need their VNA titer values.
# tgt: HA of B/Brisbane/60/2008 (Victoria) (influenza B virus)
# assay_overview: cell-based or functional assay
Give bare numbers, in nM.

binder	output_unit	recorded_result
SD1087 (VHH) VHH: EVQLVESGGGLVQPGGSLRLSCVISGLSLDTYAVGWFRQAPGKEREGITCISSGHGMTYYADSVKGRFTVSTDNAKNTVYLQMNGLQPEDTARYYCATESRYYCSDNWPAPQRYIYWGQGTQVTVSS	nM	10.2

**Query** Fill in: VNA titer of SD2086 (VHH) VHH: EVQLVESGGGLVQAGGSLRLSCATSGQTFSSYAMGWFRQAPGKEREFVAAISWNGGSTYYADSVKGRFTISRESPENLVYLQMNSLKPEDTAVYYCAARGAYYTGSYYLGSTYDYWGQGTQVTVSS is ___
**Result** 934
